Kindly state SI (CC50 L02/IC50 SW1990) for each of the entries shown.
test system: SW1990 cells; experiment: In vitro anti-proliferative SRB assay, SW1990; format: cell-based, human; details: selectivity index, L02 vs SW1990

COc1cccc(OC)c1/C=C/C(=O)c1ccc(O)cc1O <1.2
COc1cccc(OC)c1/C=C/C(=O)c1ccc(Cl)cc1 <2.8

I'm hoping you can list SI (CC50 L02/IC50 SW1990) for every molecule here, please.
1. COc1cccc(OC)c1/C=C/C(=O)c1ccc(C)cc1
2. COc1ccc(C(=O)/C=C/c2c(OC)cccc2OC)c(O)c1
3. COc1cccc(OC)c1/C=C/C(=O)c1ccccc1C
4. COc1cccc(OC)c1/C=C/C(=O)c1ccc(F)cc1
5. COc1cccc(OC)c1/C=C/C(=O)c1ccc(Cl)c(Cl)c1

1. <2.0
2. >3.5
3. <1.2
4. <2.1
5. >3.8
